Recorded values, source paper PMC7660650.

- Assayed system: Gal4-HNF4α (human HNF4α LBD) (Homo sapiens, UniProt P41235)
- Construct: uniprot entry: P41235-1, residues 142-377
- Sequence (P41235 142-377): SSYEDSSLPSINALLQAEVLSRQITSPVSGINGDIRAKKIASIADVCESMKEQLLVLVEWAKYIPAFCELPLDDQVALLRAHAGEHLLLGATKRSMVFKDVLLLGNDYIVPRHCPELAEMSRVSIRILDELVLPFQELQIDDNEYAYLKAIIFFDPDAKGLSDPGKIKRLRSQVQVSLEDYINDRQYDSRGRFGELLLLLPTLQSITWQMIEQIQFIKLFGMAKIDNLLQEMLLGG
- Assay: Hybrid Gal4-HNF4α reporter gene assay in transiently transfected HEK293T cells
- Details: dose-response; mean ± SD, at least four repeats; read-out: Validated HNF4α Modulation EC50
Quantity: pEC50
Entry type: numeric. Quantity: pEC50, the -log10 of concentration in molar units.

q: pEC50 for Nc1ncns1 [compound 7, Nc1ncns1] ?
a: 4.51
